Target: T1, GAL4 activation domain fusion (ACT) to HAB1 (UniProt Q9CAJ0 23-511, limits assumed)
T1 construct: pACT-HAB1 fusion in yeast reporter strains; also called pACT-HAB1
T1 sequence (looked up): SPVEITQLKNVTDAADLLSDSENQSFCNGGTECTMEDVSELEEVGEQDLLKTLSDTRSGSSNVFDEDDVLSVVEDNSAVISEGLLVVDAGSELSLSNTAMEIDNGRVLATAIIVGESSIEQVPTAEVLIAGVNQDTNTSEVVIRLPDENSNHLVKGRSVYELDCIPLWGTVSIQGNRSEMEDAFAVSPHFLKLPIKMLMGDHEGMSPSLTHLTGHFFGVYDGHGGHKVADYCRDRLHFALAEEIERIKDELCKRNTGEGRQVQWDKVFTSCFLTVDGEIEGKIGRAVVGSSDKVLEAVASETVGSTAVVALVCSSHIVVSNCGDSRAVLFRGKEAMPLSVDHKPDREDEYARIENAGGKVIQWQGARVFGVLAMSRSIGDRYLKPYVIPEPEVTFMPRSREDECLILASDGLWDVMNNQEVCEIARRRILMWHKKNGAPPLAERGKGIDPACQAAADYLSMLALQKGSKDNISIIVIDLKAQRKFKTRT
Experiment: yeast two-hybrid, X-gal; lowest dichlobenil concentration giving signal
MEASUREMENT_TYPE: Threshold (µM)

BINDER | MEASUREMENT_TYPE | ENDPOINT_RESULT
PYR1^K59R,E141F (receptor, pBD-PYR1 fusion in yeast) MPSELTPEERSELKNSIAEFHTYQLDPGSCSSLHAQRIHAPPELVWSIVRRFDKPQTYRHFIKSCSVEQNFEMRVGCTRDVIVISGLPANTSTERLDILDDERRVTGFSIIGGEHRLTNYKSVTTVHRFEKENRIWTVVLFSYVVDMPEGNSEDDTRMFADTVVKLNLQKLATVAEAMARNSGDGSGSQVT | Threshold | 100
PYR1^K59R,M158I (receptor, not shown: small tags and cut ends, pBD-PYR1 fusion in yeast) MPSELTPEERSELKNSIAEFHTYQLDPGSCSSLHAQRIHAPPELVWSIVRRFDKPQTYRHFIKSCSVEQNFEMRVGCTRDVIVISGLPANTSTERLDILDDERRVTGFSIIGGEHRLTNYKSVTTVHRFEKENRIWTVVLESYVVDMPEGNSEDDTRIFADTVVKLNLQKLATVAEAMARNSGDGSGSQVT | Threshold | 100
PYR1^K59R,F108E (receptor, not shown: small tags and cut ends, pBD-PYR1 fusion in yeast) MPSELTPEERSELKNSIAEFHTYQLDPGSCSSLHAQRIHAPPELVWSIVRRFDKPQTYRHFIKSCSVEQNFEMRVGCTRDVIVISGLPANTSTERLDILDDERRVTGESIIGGEHRLTNYKSVTTVHRFEKENRIWTVVLESYVVDMPEGNSEDDTRMFADTVVKLNLQKLATVAEAMARNSGDGSGSQVT | Threshold | 100
